Tested on: Tyrosinase
ASSAY EXPLANATION: Tyrosinase inhibition assay (L-DOPA substrate)
Format: biochemical
DETAILS: 10 μM compounds dissolved in DMSO
Marks after values point to notes of the source that are not given here.
Record form. Attribute: % Enzyme Inhibition Tyrosinase. Fill in for each entry.

Please review the entries below; each comes with its answer.
> print(dat)
                         structure.notation  assayed.system              measured.attribute  experimental.value
1  COc1ccc(/C=C/C(O)=C2\CCC/C(=C\c3ccc(OC)cc3)C2=O)cc1      Tyrosinase  % Enzyme Inhibition Tyrosinase          40.63 ^j %
2  O=C1/C(=C(O)/C=C/c2ccc(Cl)cc2)CCC/C1=C\c1ccc(Cl)cc1      Tyrosinase  % Enzyme Inhibition Tyrosinase         60.15 ^ef %
3  COc1ccc(/C=C/C(O)=C2\CC/C(=C\c3ccc(OC)cc3)C2=O)cc1      Tyrosinase  % Enzyme Inhibition Tyrosinase          58.54 ^g %

Now examine the next entry.
Query `O=C1/C(=C(O)/C=C/c2ccc(Cl)cc2)CC/C1=C\c1ccc(Cl)cc1` yields % Enzyme Inhibition Tyrosinase of 61.31 ^e %

* * *

ASSAYED SYSTEM: HIV-1 protease (Human immunodeficiency virus type 1 group M subtype B, UniProt P04585)
Construct: HIV-1 protease enzyme (Sigma Aldrich); purchased Sigma Aldrich
ASSAY EXPLANATION: HIV-1 protease inhibition assay (fluorescent substrate)
Type: biochemical
DETAILS: 10 μM compounds dissolved in DMSO; read-out: % Enzyme Inhibition HIV-I protease
Record form. Attribute: inhibition at 10 µM. Fill in for each entry.
Please provide the amount together with its unit, number first.

> print(dat)
                                   molecule   measured.attribute  experimental.value
1  O=C1/C(=C(O)/C=C/c2ccccc2)CC/C1=C\c1ccccc1 [Compound 3a]  inhibition at 10 µM                 27%
2  Cc1ccc(/C=C/C(O)=C2\CC/C(=C\c3ccc(C)cc3)C2=O)cc1 [Compound 3g]  inhibition at 10 µM               22.7%
3  COc1ccc(/C=C/C(O)=C2\CCC/C(=C\c3ccc(OC)cc3)C2=O)cc1 [Compound 2c]  inhibition at 10 µM               43.7%
4  COc1ccc(/C=C/C(O)=C2\CC/C(=C\c3ccc(OC)cc3)C2=O)cc1 [Compound 3c]  inhibition at 10 µM               35.9%
5  O=C1/C(=C(O)/C=C/c2ccc([N+](=O)[O-])cc2)CC/C1=C\c1ccc([N+](=O)[O-])cc1 [Compound 3h]  inhibition at 10 µM               44.8%
6  O=C1/C(=C(O)/C=C/c2ccc(Cl)cc2)CC/C1=C\c1ccc(Cl)cc1 [Compound 3f]  inhibition at 10 µM               23.3%

Query O=C1/C(=C(O)/C=C/c2ccccc2)CCC/C1=C\c1ccccc1 [Compound 2a] yields inhibition at 10 µM of 48.2%
